# test system: human Farnesoid X receptor ligand-binding domain/Gal4 DNA binding domain chimera (Homo sapiens (Human), UniProt Q96RI1)
# Sequence (Q96RI1 262-486, change not shown): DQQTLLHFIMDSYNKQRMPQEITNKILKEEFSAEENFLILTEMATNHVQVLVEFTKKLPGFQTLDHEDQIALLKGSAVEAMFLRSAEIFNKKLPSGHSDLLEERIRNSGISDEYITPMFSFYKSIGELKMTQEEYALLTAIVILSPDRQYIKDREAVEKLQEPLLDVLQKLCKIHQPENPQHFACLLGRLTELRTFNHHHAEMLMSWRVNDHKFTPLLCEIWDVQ
# Sequence (P04386 1-147 partner): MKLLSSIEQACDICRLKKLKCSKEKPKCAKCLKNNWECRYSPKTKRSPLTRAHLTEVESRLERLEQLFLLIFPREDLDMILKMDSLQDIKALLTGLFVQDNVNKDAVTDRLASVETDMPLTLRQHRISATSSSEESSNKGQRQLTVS
# assay summary: Cell-based assay of FXR activation (FXR-UAS-bla HEK 293T beta-lactamase reporter)
# test parameters: HEK-293T; extent of activation relative to GW4064; cellular FXR beta-lactamase reporter assay; read-out: % Efficacy
Reported Emax is given for each of the following molecules.

Problem: Tell me measured Emax for CC[N+](C)(CC)CCCCCCCCCCS(=O)(=O)NC(=O)c1ccc(N2C[C@@H]3C[C@H]2C[C@H]3OCc2c(-c3c(Cl)cccc3Cl)noc2C2CC2)c(F)c1 please.
Solution: 152%

---

# test system: ligand binding domain of human FXR (Homo sapiens (Human), UniProt Q96RI1)
# Sequence (Q96RI1 262-486): as the sequence (Q96RI1 262-486, change not shown) above
# assay summary: FXR ligand binding assay (LanthaScreen TR-FRET, SRC2-2 peptide recruitment)
# test parameters: -log EC50, concentration required to produce 50% activation
Label true when pEC50 >= 8; otherwise false.

Worked cases, answers included:
1) O=C(NS(=O)(=O)C1CC1)c1ccc(N2C[C@H]3C[C@@H]2C[C@@H]3OCc2c(-c3c(Cl)cccc3Cl)noc2C2CC2)c(F)c1 [Compound I-231] = true
2) O=C(NS(=O)(=O)C1CC1)c1ccc(N2C(=O)[C@@H]3C[C@H]2C[C@H]3OCc2c(-c3c(Cl)cccc3Cl)noc2C2CC2)cn1 [Compound I-351] = false
3) O=C(O)c1ccc(N2C[C@@H]3C[C@H]2C[C@H]3OC(=O)c2c(-c3c(Cl)cccc3Cl)noc2C2CC2)cc1 [Compound I-42] = false

Problem: Evaluate O=C(NS(=O)(=O)C1CCOC1)c1ccc(N2C(=O)[C@@H]3C[C@H]2C[C@H]3OCc2c(-c3c(Cl)cccc3Cl)noc2C2CC2)cc1 (stereo partly drawn) [Compound I-340] : pEC50 at minimum 8?
Solution: true

Problem: Hi team, for CC1(C)CC(S(=O)(=O)NC(=O)c2ccc(N3C(=O)[C@@H]4C[C@H]3C[C@H]4OCc3c(-c4c(Cl)cccc4Cl)noc3C3CC3)cc2)CCO1 (stereo partly drawn) [Compound I-329] , is the recorded pEC50 at or above 8?
Solution: true

---

# test system: ligand binding domain of human FXR (Homo sapiens (Human))
# assay summary: FXR ligand binding assay (LanthaScreen TR-FRET, SRC2-2 peptide recruitment)
# test parameters: -log EC50, concentration required to produce 50% activation
reported metric: pEC50
Just the number, please, no unit attached.

1) CN1CCC(S(=O)(=O)NC(=O)c2ccc(N3C[C@@H]4C[C@H]3C[C@H]4OCc3c(-c4c(Cl)cccc4Cl)noc3C3CC3)cc2)CC1 = 9.2

Problem: Tell me its pEC50 given Cc1cc(N2C[C@@H]3C[C@H]2C[C@H]3OCc2c(-c3c(Cl)cccc3Cl)noc2C2CC2)ccc1C(=O)O as the entry.
Solution: 9.3

---

# test system: human Farnesoid X receptor ligand-binding domain/Gal4 DNA binding domain chimera (Homo sapiens (Human), UniProt Q96RI1)
# assay summary: Cell-based assay of FXR activation (FXR-UAS-bla HEK 293T beta-lactamase reporter)
# test parameters: cellular FXR beta-lactamase reporter assay, FXR-UAS-bla HEK 293T cells, 16 h; pEC50 = -log EC50
reported metric: pEC50
Bear in mind: pEC50 is minus log10 of a mol/L concentration; give just that figure.

Consider the reported pEC50 for these molecules:
1) O=C(O)c1cc(OC(F)(F)F)c2nc(N3C[C@@H]4C[C@H]3C[C@H]4OCc3c(C4CCOCC4)noc3C3CC3)sc2c1 [Compound I-23] = 6.20
2) O=C(O)c1cc(OC(F)(F)F)c2nc(N3C[C@@H]4C[C@H]3C[C@H]4OC(=O)c3c(-c4ccccc4C(F)(F)F)noc3C3CC3)sc2c1 [Compound I-9] = 8.30
3) CC(=O)NCCCCCCCCCCS(=O)(=O)NC(=O)c1ccc(N2C[C@@H]3C[C@H]2C[C@H]3OCc2c(-c3c(Cl)cccc3Cl)noc2C2CC2)c(F)c1 [Compound I-224] = 8.60
4) CS(=O)(=O)NC(=O)c1cc(F)c2nc(N3C[C@@H]4C[C@H]3C[C@H]4OCc3c(-c4c(Cl)cccc4Cl)noc3C3CC3)sc2c1 [Compound I-28] = 8.70
5) O=C(O)c1cc(F)c(N2C[C@@H]3C[C@H]2C[C@H]3OCc2c(-c3c(Cl)cccc3Cl)noc2C2CC2)cc1F [Compound I-105] = 8.90

Now for the molecule whose pEC50 we want.
Problem: Provide pEC50 value for the following molecule: O=C(O)C1CC(c2ccc(N3C[C@@H]4C[C@H]3C[C@H]4OCc3c(-c4c(Cl)cccc4Cl)noc3C3CC3)cc2)C1 (stereo partly drawn) [Compound I-151]
Solution: 7.60
